These measurements were taken from patent US3937829A.

test: solubility and reaction of aqueous solutions; format: physicochemical; conditions: water; solutions; read-out: concentration of the active principle above which the substance precipitates
observation.type: solubility

[[record]]
chemical_string = "Cc1[nH]c(=O)[nH]c(=O)c1S(=O)(=O)Nc1ccc(S(=O)(=O)c2ccc(NS(=O)(=O)c3c(C)[nH]c(=O)[nH]c3=O)cc2)cc1"
assay_value = "> 120 mg/mL"

